Data provenance: patent US5376676A

- MEASURED_ON: bee venom phospholipase A2 (Apis mellifera, UniProt P00630)
- Sequence (P00630 34-167 limits assumed): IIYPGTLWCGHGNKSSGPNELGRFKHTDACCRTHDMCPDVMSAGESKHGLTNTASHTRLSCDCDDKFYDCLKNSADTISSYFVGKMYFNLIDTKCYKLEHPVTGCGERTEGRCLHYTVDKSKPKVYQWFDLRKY
- ASSAY_DETAILS: biochemical
- CONDITION_PARAMETERS: read-out: IC50 PLA2
Please respond with reported IC50 for every item in the list.

With bee venom phospholipase A2 (Apis mellifera, UniProt P00630) as the test system, provide measured IC50 for this compound: CCCCCCCCCCCCCC1=CC(=O)OC1O (centres unmarked) [Compound 2, 4-tridecyl-5-hydroxy-2(5H)-furanone]
90 nM

With bee venom phospholipase A2 (Apis mellifera, UniProt P00630) as the test system, provide measured IC50 for this compound: CCCCCCCCCCCCCC1=CC(=O)OC1 [Compound 1, 4-tridecyl-2(5H)-furanone]
> 3300 nM
